The following compounds are listed with their measured EC50 values.
Target: UniProt P30556
Sequence (P30556 1-359): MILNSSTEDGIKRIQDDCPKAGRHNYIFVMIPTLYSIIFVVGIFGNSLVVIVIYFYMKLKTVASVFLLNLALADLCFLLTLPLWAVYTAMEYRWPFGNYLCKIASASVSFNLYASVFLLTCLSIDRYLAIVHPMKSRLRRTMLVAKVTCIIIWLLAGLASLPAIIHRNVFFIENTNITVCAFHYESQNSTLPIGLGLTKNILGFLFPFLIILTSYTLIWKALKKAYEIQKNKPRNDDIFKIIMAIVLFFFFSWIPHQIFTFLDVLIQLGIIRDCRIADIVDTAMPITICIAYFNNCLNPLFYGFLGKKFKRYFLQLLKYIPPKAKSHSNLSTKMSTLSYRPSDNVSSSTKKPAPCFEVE
Test: BRET Gq biosensor assay, agonist response, HEK293 cells
Type: cell-based
Settings: section of the 42nd table directly before the BRET P63 section
ENDPOINT: EC50

>>> reported("CCCCC(=O)N(Cc1ccc(-c2cc(-c3ccccc3)ccc2-c2nn[nH]n2)cc1)C1(C(=O)O)Cc2ccccc2C1")
"> 100 µM"
>>> reported("CCCCc1ncc(C(=O)NCc2cccnn2)n1Cc1ccc(-c2cc(-c3ccccc3)ccc2-c2nn[nH]n2)cc1")
"> 1 µM"
>>> reported("CCCCC(=O)N(Cc1ccc(-c2cc(Oc3cccnc3)ccc2-c2nn[nH]n2)cc1)[C@H](C(=O)O)C(C)C")
"> 100 µM"
